System: HEK293
Experiment: Cell growth inhibition experiment (SRB), HEK293
Format: cell-based, human
Conditions: Homo sapiens, HEK293, 96 h, 96 hours incubation, read-out: IC50 (μM) for cancer cell line HEK293
Task for the reader: assign each of the following compounds its reported IC50.
Answers are plain numbers, in µM.

// worked examples, IC50 included
# Line notation, IC50, µM
measured = [
    ("COc1cc(OCCN(C)C)cc(N2CCN(C(=O)Nc3nc4cc(C)oc4nc3OC)CC2)c1", 0.25),
    ("COc1nc2occc2nc1NC(=O)N1CCN(c2cccc(OC(F)(F)F)c2)CC1", 0.56),
]

Turning to the following compound.
Challenge: For the record `CCOc1nc2occc2nc1NC(=O)N1CCN(c2cc(C(F)(F)F)cc(C(F)(F)F)c2)CC1` , what value of IC50 is listed for HEK293?
Response given: 1.23

Origin of values: patent US10800788B2
